Numbers sourced from patent US9150566B2.

- system-tested: CYP3A4 (Homo sapiens (Human), UniProt P08684)
- Sequence (P08684 whole entry): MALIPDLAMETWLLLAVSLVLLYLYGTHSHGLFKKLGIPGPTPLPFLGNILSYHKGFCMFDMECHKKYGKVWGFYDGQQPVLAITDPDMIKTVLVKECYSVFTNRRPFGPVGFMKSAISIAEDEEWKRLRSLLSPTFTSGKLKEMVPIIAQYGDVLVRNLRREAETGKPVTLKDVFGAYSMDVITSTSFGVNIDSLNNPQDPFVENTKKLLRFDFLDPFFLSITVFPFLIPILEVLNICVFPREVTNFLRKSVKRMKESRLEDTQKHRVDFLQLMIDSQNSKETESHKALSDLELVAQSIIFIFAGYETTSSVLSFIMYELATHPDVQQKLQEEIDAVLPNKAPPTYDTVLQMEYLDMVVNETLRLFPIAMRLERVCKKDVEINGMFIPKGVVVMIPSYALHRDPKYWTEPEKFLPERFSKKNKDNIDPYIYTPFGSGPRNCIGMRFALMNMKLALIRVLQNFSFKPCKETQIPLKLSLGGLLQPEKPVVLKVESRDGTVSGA
- assay-info: CYP3A4 inhibition assay (human liver microsomes, testosterone 6β-hydroxylation)
- test-settings: read-out: CYP3A4 IC50, 40 μM testosterone
// returns no (0) unless IC50 is strictly below 20 µM, in which case yes (1)

structure-smiles-string: O=C(c1ccccc1-n1nccn1)N1CCC[C@H]1Cc1cccc(-n2nccn2)c1
qualitative-label: yes (1)
--
structure-smiles-string: Cc1ccc(-n2nccn2)c(C(=O)N2CCOC[C@H]2Cc2cc(-n3nccn3)ccc2C)c1
qualitative-label: yes (1)
--
structure-smiles-string: Cc1ccc(C(=O)N2CCOC[C@H]2Cc2cc(-n3nccn3)ccc2Cl)c(-n2nccn2)c1C
qualitative-label: no (0)
--
structure-smiles-string: Cc1ccc(C[C@@H]2COCCN2C(=O)c2ccccc2-n2nccn2)cc1-c1ncccn1
qualitative-label: no (0)

hey, is IC50 for Cc1ccc(-n2nccn2)c(C(=O)N2CCOC[C@H]2Cc2cccc(-n3nccn3)c2)n1 lower than 20 µM or not?
no (0)

hey, is IC50 for Cc1ccc(C(=O)N2CCOC[C@H]2Cc2cccc(-n3nccn3)c2)c(-n2nccn2)c1 lower than 20 µM or not?
no (0)
